Assay: Inhibition of PDE4 in human PBMC assessed as reduction in LPS-induced TNFalpha release after 18 hrs by quantitative ELISA
Could you please report measured pIC50 for the items listed next?
Numbers only, as −log10 of the molar value.

Reference set, count: 3
| Molecule | Reading |
| --- | --- |
| CN(C)C(=O)c1cccc(S(=O)(=O)N2CCC[C@@H](C(=O)O[C@@H](Cc3c(Cl)c[n+]([O-])cc3Cl)c3ccc(OC(F)F)c(OCC4CC4)c3)C2)c1 (relative stereo) | 9.92 |
| COc1ccc(S(=O)(=O)N2CCS[C@H]2C(=O)O[C@@H](Cc2c(Cl)c[n+]([O-])cc2Cl)c2ccc(OC(F)F)c(OCC3CC3)c2)cc1C(=O)N(C)C (relative stereo) | 10.66 |
| O=C(O[C@@H](Cc1c(Cl)c[n+]([O-])cc1Cl)c1ccc(OC(F)F)c(OCC2CC2)c1)[C@@H]1CCCN1S(=O)(=O)c1ccccc1 (relative stereo) | 9.40 |

Now consider the entry below.
Quick check: pIC50 of O=C(O[C@@H](Cc1c(Cl)c[n+]([O-])cc1Cl)c1ccc(OC(F)F)c(OCC2CC2)c1)[C@@H]1SCCN1S(=O)(=O)c1ccccc1 (relative stereo) ?
9.59
